Target: T1, ΔCRD3-TNFR2 protein (with CRD3 deletion), on CHO-S cells (human, UniProt P20333 23-461)
T1 construct: also called CHO-SΔCRD3-TNFR2; TNFR2 lacking CRD3
T1 sequence: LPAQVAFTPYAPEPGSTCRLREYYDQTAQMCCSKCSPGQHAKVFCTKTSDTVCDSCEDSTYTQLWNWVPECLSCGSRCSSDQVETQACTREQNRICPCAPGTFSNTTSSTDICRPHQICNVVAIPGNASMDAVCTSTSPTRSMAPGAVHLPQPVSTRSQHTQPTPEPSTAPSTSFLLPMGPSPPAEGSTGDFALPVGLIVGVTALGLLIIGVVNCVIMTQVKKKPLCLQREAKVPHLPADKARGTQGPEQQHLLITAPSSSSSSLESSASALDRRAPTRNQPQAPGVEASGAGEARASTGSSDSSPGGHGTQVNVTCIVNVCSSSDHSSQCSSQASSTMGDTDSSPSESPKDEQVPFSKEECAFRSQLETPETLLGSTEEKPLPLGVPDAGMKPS
Assay: FACS on CHO-S cells with ΔCRD3-TNFR2, AF647 anti-human IgG Fc secondary
quantity.name: positive rate of binding (% of cells) (%)
All answers are understood in %, so give the number only.

Record excerpt, results attached:
BC-1B6-IgG1-LALA (antibody, V domains shown) VH: QVQLVESGGGVVQPGRSLRLSCAASGFTFSNFGMHWVRQAPGKGLEWVAVIWYEGSDKYYADSVKGRFTISRDNSKNTLYLQMNSLRAEDTAVYYCARDSSWGFLLYGMDVWGQGTTVTVSS VL: DVVMTQSPLSLPVTLGQPASISCRSSRSLEYSDGNTYLNWFQQRPGQSPRRLIYKVSNRDSGVPDRFSGSGSGTAFTLKISGVEAEDVGVYYCMQGTHWPPTFGGGTKVEIK :: 0.44
BC-1A8-IgG1 (antibody, V domains shown, Fully human VH/VL joined to the human IgG1 subtype, kappa light chain (RenMab mice)) VH: QVQLQQSGPGLVKPSQTLSLTCAISGDSVSSNSAAWNWIRQSPSRGLEWLGRTYYRSKWYNDYALSVKSRITINPETSKNQFSLQLNSVTPEDTAVYYCAREDGVGGTKDYFDYWGQGTLVTVSS VL: DIQMTQSPSSLSASVGDRVTITCQASQDIDNYLNWYQQKPGKAPKLLIYDVSNLEIGVPSRFSGSGSGTDFTFTISSLQPEDIATYYCQQYDNLPLTFGQGTRLEIK :: 0.52
BC-1F4-IgG1 (antibody, V domains shown, Human VH/VL joined to the human IgG1 subtype) VH: QVQLQQSGPGLVKPSQTLSLTCAISGDSVSSDSSAWNWIRQSPSRGLEWLGRTYYRSKWYNDYTVSVKSRITINPDTSKNQFSLQLNSVTPEDTAVYYCAREDGVGGTKDYFDYWGQGTLVTVSS VL: DIQMTQSPSSLSASVGDRVTITCQASQDISNYLNWYQQKPGKAPKLLIYDASNLETGVPSRFSGSGSGTDFTFTINSLQPEDFATYFCQQYDNLPITFGQGTRLEIK :: 0.47

Let us move to another entry and its positive rate of binding (% of cells).
Would you mind telling me what positive rate of binding (% of cells) value was observed for BC-1C3-IgG1 (antibody, V domains shown, Human VH/VL joined to the human IgG1 subtype) VH: QVQLVESGGGVVHPGKSLRLSCAASGFTFNIYGMHWVRQAPGKGLEWVALISYDGNDKYFADSVKGRFTISRDNSKNTLYLQMNSLRAEDTAVYYCAKAVDTAVVTFFDYWGQGTLVTVSS VL: EIVMTQSPVTLSVSPGERATLSCRASQSVSSNLAWYQQKPGQAPRLLIYSASTRATGIPARFSGSGSGTEFTLTISSLQSEDLAVYYCQQYSNWPFTFGPGTKVDIK ? 0.81
